# Protocol summary: in vitro
# Conditions used: bovine, cerebrospinal or other body fluid
No end group written: not given here.
Observable: remaining at 1 h, 1 μg/mL (%)
// return numeric value only (unit: %, not printed)

Consider the substance LVVYPWT [Spinorphin, Leu-Val-Val-Tyr-Pro-Trp-Thr] and give its measured remaining at 1 h, 1 μg/mL.
98.8

Hello, the source for this data is patent US20060194268A1, in case you need it.
